Assay: Pharmacokinetics and bioavailability of Compound I-2 in rats (plasma Compound IV-1 by LC-MS/MS)
Format: in vivo, rat
Conditions: male, rat, plasma; SD rats, intravenous injection 8 μmol/kg (2.7 mg/kg), individual animal; read-out: Tmax of Compound IV-1, single animals
measurement_label: Tmax (min)
Quick reminder: number only, in min, skip the unit.

Lookup: Would you mind telling me what Tmax value was observed for COC(=O)[C@H](c1ccccc1Cl)N1CCC2SC(=O)C=C2C1 (stereo partly shown) ?
Found: 4.98

---

Assay: Pharmacokinetics and bioavailability of Compound I-2 in rats (plasma Compound IV-1 by LC-MS/MS)
Format: in vivo, rat
Settings: male, Sprague-Dawley, rat, plasma, iv, 8 μmol/kg, SD rats, intravenous injection 8 μmol/kg, 0.167 h, mean of 3; read-out: Concentration of Compound IV-1 in plasma, Mean
measurement_label: concentration at 0.167 h (ng/mL)
Dear colleague, please return just the value in ng/mL, with no unit written.

Lookup: Entry under review: COC(=O)[C@H](c1ccccc1Cl)N1CCC2SC(=O)C=C2C1 (stereo partly shown) . Reported concentration at 0.167 h?
Found: 348
